Biological target: T1, human BAFF (B cell activating factor) (human, UniProt Q9Y275 134-285)
T1 construct: also called hBAFF
T1 sequence (Q9Y275 134-285): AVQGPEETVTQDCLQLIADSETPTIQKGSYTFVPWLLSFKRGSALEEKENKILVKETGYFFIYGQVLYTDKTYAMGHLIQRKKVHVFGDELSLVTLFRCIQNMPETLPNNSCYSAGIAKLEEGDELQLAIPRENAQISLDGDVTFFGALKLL
Experiment: flow cytometry on cells; yeast-displayed sBCMA (wild type or mutant clone) incubated with increasing concentrations of soluble APRIL or BAFF; same reagents and protocols as the library sorts (PBS with 0.1% BSA, room temperature); KD from a one site-specific binding fit in GraphPad Prism
Conditions: one partner purified
assay-metric: pKd
# pKd: negative log10 of molar concentration; output just the value

Form field pKd, entry yeast-displayed mutant sBCMA V3 (S16G, H19Y, T36A, N53D) (domain or fragment, human, UniProt Q02223 1-54, looked up, B cell maturation antigen (BCMA), human, extracellular domain, amino acids Met1-Ala54, with the four V3 mutations) MLQMAGQCSQNEYFDGLLYACIPCQLRCSSNTPPLACQRYCNASVTNSVKGTDA : 11.05

This collection of values is drawn from paper PMC9428257.
